Molecular target: Histone deacetylase
Test: Inhibition of HDAC in human HeLa cell extracts by fluorimetric assay
Type: protein assay
Each entry below carries its recorded IC50.

Completed entries (count: 3):
| Compound Structure | IC50 |
| --- | --- |
| CCC(=O)CCCCC[C@@H]1NC(=O)[C@H](C)N(C)C(=O)CCN(CC(C)C)C(=O)[C@H](Cc2c[nH]c3ccccc23)NC1=O | > 10 µM |
| CCC(=O)CCCCC[C@@H]1NC(=O)[C@H](C)N(C)C(=O)CCN(CC(C)C)C(=O)CN(CC2CCCCC2)C1=O | > 100 µM |
| CCC(=O)CCCCCN1CC(=O)N(CCc2c[nH]c3ccccc23)CC(=O)N(CC(C)C)CCC(=O)N(C)[C@@H](C)C1=O | > 10 µM |

stdin: Tell me the measured IC50 of "CCC(=O)CCCCC[C@@H]1NC(=O)[C@H](CCCCNC(C)=O)NC(=O)CCN(CC(C)C)C(=O)CN(CCc2c[nH]c3ccccc23)C1=O" , please.
stdout: 0.21 µM

stdin: Tell me the measured IC50 of "CCC(=O)CCCCC[C@@H]1NC(=O)[C@H](C)N(C)C(=O)CCN(CC(C)C)C(=O)CN(Cc2cccc3ccccc23)C1=O" , please.
stdout: 18 µM

stdin: Tell me the measured IC50 of "CCC(=O)CCCCC[C@@H]1NC(=O)[C@H](CCCNC(=N)N)NC(=O)CCN(CC=C(C)C)C(=O)CN(CCc2c[nH]c3ccccc23)C1=O" , please.
stdout: 0.25 µM

Cited source: ChEMBL document CHEMBL2169795
